# Tested on: CCRF-CEM
# protocol.notes: Cytotoxicity against Homo sapiens (human) CEM cells assessed as growth inhibition after 72 hr by coulter counter analysis
# Type: functional, cell-based
pIC50: −log10 of the molar value.
Param threshold (5) applies to pIC50; output true when value >= threshold, false when value < threshold.

| record.smiles | target.or.system | discrete.label |
| --- | --- | --- |
| N[C@@H](Cc1ccc(N(CCCl)CCCl)cc1)C(=O)O | CCRF-CEM | true |
| CCN(CC)CN1C(=O)/C(=N/NC(N)=S)c2ccccc21 | CCRF-CEM | false |
| CCN(CC)CN1C(=O)/C(=N/NC(=S)Nc2ccccc2)c2cc(Cl)ccc21 | CCRF-CEM | false |
| CCN(CC)CN1C(=O)/C(=N/NC(=S)Nc2ccc(OC)cc2)c2ccccc21 | CCRF-CEM | true |
| CCN(CC)CN1C(=O)/C(=N/NC(=S)Nc2ccc(C)cc2)c2cc(Cl)ccc21 | CCRF-CEM | true |
| CCN(CC)CN1C(=O)/C(=N/NC(N)=S)c2cc(Cl)ccc21 | CCRF-CEM | false |
| CCN(CC)CN1C(=O)/C(=N/NC(=S)Nc2ccc(Cl)cc2)c2cc(Cl)ccc21 | CCRF-CEM | false |
| CCN(CC)CN1C(=O)/C(=N/NC(=S)Nc2ccc(OC)cc2)c2cc(Cl)ccc21 | CCRF-CEM | true |

----------
# System: HeLa
# protocol.notes: Cytotoxicity against Homo sapiens (human) HeLa cells assessed as change in cellular morphology
# Format: cell-based
# condition.summary: hela
metric: CC50

| molecule | metric | observed.measurement |
| --- | --- | --- |
| CCN(CC)CN1C(=O)/C(=N/NC(=S)Nc2ccccc2)c2ccccc21 | CC50 | 10.8 µM |
| CCN(CC)CN1C(=O)/C(=N/NC(=S)Nc2ccc(OC)cc2)c2cc(Cl)ccc21 | CC50 | 13.2 µM |
| CCN(CC)CN1C(=O)/C(=N/NC(=S)Nc2ccc(Cl)cc2)c2cc(Cl)ccc21 | CC50 | 9.4 µM |
| CCN(CC)CN1C(=O)/C(=N/NC(=S)Nc2ccc(C)cc2)c2cc(Cl)ccc21 | CC50 | > 100 µM |
| CCN(CC)CN1C(=O)/C(=N/NC(=S)Nc2ccc(OC)cc2)c2ccccc21 | CC50 | > 100 µM |
| Nc1ncnc2c1ncn2C[C@H](O)CO [(S)-DHPA] | CC50 | > 250 µM |

----------
# protocol.notes: Cytotoxicity against MDCK cells assessed as change in cellular morphology
# Assay type: cell-based, Canis lupus familiaris
# condition.summary: dog, MDCK cells

| record.smiles | MCC |
| --- | --- |
| CCN(CC)CN1C(=O)/C(=N/NC(=S)Nc2ccc(Cl)cc2)c2cc(Cl)ccc21 | ≥ 0.8 µM |
| CCN(CC)CN1C(=O)/C(=N/NC(N)=S)c2cc(Cl)ccc21 | 100 µM |
| NC(=O)c1ncn([C@@H]2O[C@H](CO)[C@@H](O)[C@H]2O)n1 | ≥ 100 µM |

----------
# protocol.notes: Cytotoxicity against Homo sapiens (human) HEL cells assessed as change in cellular morphology
# Assay type: cell-based
metric: MCC (µM)

| record.smiles | metric | unit | reported.relation | observed.measurement |
| --- | --- | --- | --- | --- |
| CCN(CC)CN1C(=O)/C(=N/NC(=S)Nc2ccc(C)cc2)c2ccccc21 | MCC | µM | = | 100 |
| CCN(CC)CN1C(=O)/C(=N/NC(=S)Nc2ccc(OC)cc2)c2cc(Cl)ccc21 | MCC | µM | = | 100 |
| Nc1nc2c(ncn2COCCO)c(=O)[nH]1 | MCC | µM | > | 250 |
| CCN(CC)CN1C(=O)/C(=N/NC(=S)Nc2ccc(Cl)cc2)c2cc(Cl)ccc21 | MCC | µM | = | 100 |
| O=c1[nH]c(=O)n([C@H]2C[C@H](O)[C@@H](CO)O2)cc1/C=C/Br | MCC | µM | > | 250 |

All figures here come from ChEMBL document CHEMBL3045116.
